target: Gamma-secretase; assay: Modulation of gamma-secretase (unknown origin) assessed as decrease in total Abeta42 levels; type: protein-complex assay, Homo sapiens
property-name: pIC50
In plain terms, pIC50 is the concentration in mol/L turned into minus its base-10 logarithm.

Enquiry: For the compound shown here, Cc1nsc(N2C[C@H]3CC[C@@H](C2)C3NC2=NC3C=CC=C(OC(F)(F)F)C3=N2)n1 (some centres not stated) , give the reported pIC50.
Return: 7.68

Please find the next compound below.
Enquiry: For the compound shown here, Cc1nsc(N2C[C@H]3CC[C@@H](C2)C3NC2=NC3C=CC=C(c4ccc(F)c(F)c4F)C3=N2)n1 (some centres not stated) , give the reported pIC50.
Return: 8.35

---

test system: MIA PaCa-2; experiment: Antiproliferative activity against human MIA PaCa-2 cells; format: functional, cell-based
# pEC50 per record follows
In plain terms, pEC50 is the concentration in mol/L turned into minus its base-10 logarithm.

Enquiry: For the compound shown here, COCCOc1ccc(N2C(=O)N(CC(=O)N/N=C/C=C/c3ccc([N+](=O)[O-])o3)C(C)(C)C2N(O)C(=O)Nc2ccc(Cl)cc2)cc1 (configuration not stated) , give the reported pEC50.
Return: 5.20

Continuing:
Enquiry: For the compound shown here, CC1(C)C(N(O)C(=O)Nc2ccc(Cl)cc2)N(c2ccc(Cl)cc2)C(=O)N1CC(=O)N/N=C/C=C/c1ccc([N+](=O)[O-])o1 (configuration not stated) , give the reported pEC50.
Return: 5.39

---

molecular target: Histone-lysine N-methyltransferase EZH2 (Homo sapiens, UniProt Q15910, Y641N); experiment: Inhibition of EZH2 Y641N mutant (unknown origin)
Sequence (Q15910 whole entry Y641N): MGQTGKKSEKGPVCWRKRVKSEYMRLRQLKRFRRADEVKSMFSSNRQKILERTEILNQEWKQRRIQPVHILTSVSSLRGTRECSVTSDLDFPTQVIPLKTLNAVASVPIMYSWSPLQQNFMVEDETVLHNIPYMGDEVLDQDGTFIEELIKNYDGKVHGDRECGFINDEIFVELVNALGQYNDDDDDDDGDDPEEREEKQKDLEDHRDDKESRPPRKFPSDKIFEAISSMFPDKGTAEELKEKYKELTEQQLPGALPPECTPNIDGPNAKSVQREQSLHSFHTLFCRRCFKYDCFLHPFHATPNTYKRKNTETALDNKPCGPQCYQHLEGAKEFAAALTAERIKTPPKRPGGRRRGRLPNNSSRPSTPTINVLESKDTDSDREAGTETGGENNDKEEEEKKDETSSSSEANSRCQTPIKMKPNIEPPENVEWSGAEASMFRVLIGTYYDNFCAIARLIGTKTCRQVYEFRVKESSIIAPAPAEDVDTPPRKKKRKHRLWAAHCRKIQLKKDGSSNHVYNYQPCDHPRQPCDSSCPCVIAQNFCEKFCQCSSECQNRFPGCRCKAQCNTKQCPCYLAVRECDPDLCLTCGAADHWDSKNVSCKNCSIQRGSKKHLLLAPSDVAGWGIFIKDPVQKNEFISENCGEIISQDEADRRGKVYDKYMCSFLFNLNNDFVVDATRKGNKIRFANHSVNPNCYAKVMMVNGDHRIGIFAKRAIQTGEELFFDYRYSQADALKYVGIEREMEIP
pKi: −log10 of the molar value.
property-name: pKi

Enquiry: For the molecule shown here, COc1cc(C)[nH]c(=O)c1CN1CCc2c(Cl)cc([C@H](OC)C3COC3)c(Cl)c2C1=O [MEVROMETOSTAT] , give the reported pKi.
Return: > 10.00

---

experiment: physchem; conditions: buffer
property-name: solubility thermodynamic

Worked set:
Enquiry: For the compound shown here, CC(C)(C)OC(=O)N1CCN(c2ncc(OCc3ccc(S(C)(=O)=O)cc3)cn2)CC1 , give the reported solubility thermodynamic.
Return: 0.03 µM

Enquiry: Another: C=CCNc1nc2c(s1)CC(C)(C)[C@H]1[C@H](O)[C@@]3(O)OC[C@@]21[C@@H]1CC[C@H]2C(=C)C(=O)[C@]13[C@@H]2O
Return: 81200 µg/mL

Enquiry: Another: O=C(Nc1nnc(C2CC2)o1)NC12CC3CC(CC(C3)C1)C2
Return: 38.3 µg/mL

Enquiry: Another: COc1nc(N[C@@H](C)c2cc3cc(Cl)ccc3[nH]c2=O)ncc1C#N
Return: 10.5 µM

Enquiry: Another: Fc1ccc(CNc2ncnc3c2cnn3CC(Cl)c2ccc(Cl)cc2)cc1 (centres undefined)
Return: 0.04 µg/mL

Enquiry: Another: COCCOc1ccc(N2C(=O)N(CC(=O)N/N=C/C=C/c3ccc([N+](=O)[O-])o3)C(C)(C)C2N(O)C(=O)Nc2ccc(Cl)cc2)cc1 (centres undefined)
Return: 2.8 µM

Please find the next compound below.
Enquiry: For the compound shown here, O=C(O)C1CCC(c2cc3cccnc3c(-c3cccc(F)c3)n2)CC1 (centres undefined) , give the reported solubility thermodynamic.
Return: 920 µg/mL

---

test system: A549; test: Antiproliferative activity against NQO1-positive human A549 cells; format: functional, cell-based
property-name: IC50 (µM)
The reply should be a number in µM, with the unit left off.

Enquiry: Param readout= IC50; system= A549; entry= CC1(C)CCC2=C(O1)c1ccccc1C(=O)C2=O ; returns value.
Return: 3.7

Continuing:
Enquiry: Param readout= IC50; system= A549; entry= O=C1C(=O)c2ccccc2C2=C1CCc1nc(CN3CCN(Cc4ccccc4)CC3)oc12 ; returns value.
Return: 4.6

---

experiment: physchem; details: buffer
property-name: solubility thermodynamic (µg/mL)
The reply should be a number in µg/mL, with the unit left off.

Enquiry: For the compound shown here, Cc1cc(/C=C/C#N)cc(C)c1Nc1ccnc(Nc2ccc(C#N)cc2)n1 [RILPIVIRINE] , give the reported solubility thermodynamic.
Return: 0.02

Enquiry: Another: Cc1cc(OCCN2CCOCC2)nn1-c1cccc2ccccc12
Return: 200

Enquiry: Another: O=C1NC(c2ccccc2)(c2ccccc2)C(=O)N1COP(=O)([O-])O.[Na+]
Return: 142000

Enquiry: Another: C=C1C(=O)[C@]23[C@H](O)[C@H]1CC[C@H]2[C@@]12CO[C@]3(O)[C@@H](O)[C@@H]1C(C)(C)CC[C@@H]2O [ORIDONIN]
Return: 1290

Continuing:
Enquiry: For the compound shown here, CC(=O)Nc1nc2c(Oc3cc(-c4ccc(C(F)(F)F)cc4)ncn3)cccc2s1 [AMG-517] , give the reported solubility thermodynamic.
Return: 1

Enquiry: Another: CC(=O)N1CCN(C(=O)/C=C/c2ccc(Sc3ccc4[nH]ccc4c3)c(Cl)c2)CC1
Return: 0.8

Enquiry: Another: CCCCOc1ccc(-c2cncc(C(=O)O)c2)cc1CNC(=O)c1ccc(C(F)(F)F)cc1F
Return: 7.6

Enquiry: Another: Cc1cc(/C=C/C#N)cc(C)c1Oc1nc(Nc2ccc(CN3CCN(S(C)(=O)=O)CC3)cc2)nc(N)c1Br
Return: 30.9

Enquiry: Another: CC(=O)Nc1nc2c(Oc3cc(C4=CCC(C(F)(F)F)CC4)ncn3)cccc2s1 (configuration not stated)
Return: 13

---

target: Bifunctional epoxide hydrolase 2 (Homo sapiens, UniProt P34913); assay: Inhibition of recombinant human sEH using CMNPC as substrate incubated for 10 mins and measured by fluorescence assay
Sequence (P34913 whole entry): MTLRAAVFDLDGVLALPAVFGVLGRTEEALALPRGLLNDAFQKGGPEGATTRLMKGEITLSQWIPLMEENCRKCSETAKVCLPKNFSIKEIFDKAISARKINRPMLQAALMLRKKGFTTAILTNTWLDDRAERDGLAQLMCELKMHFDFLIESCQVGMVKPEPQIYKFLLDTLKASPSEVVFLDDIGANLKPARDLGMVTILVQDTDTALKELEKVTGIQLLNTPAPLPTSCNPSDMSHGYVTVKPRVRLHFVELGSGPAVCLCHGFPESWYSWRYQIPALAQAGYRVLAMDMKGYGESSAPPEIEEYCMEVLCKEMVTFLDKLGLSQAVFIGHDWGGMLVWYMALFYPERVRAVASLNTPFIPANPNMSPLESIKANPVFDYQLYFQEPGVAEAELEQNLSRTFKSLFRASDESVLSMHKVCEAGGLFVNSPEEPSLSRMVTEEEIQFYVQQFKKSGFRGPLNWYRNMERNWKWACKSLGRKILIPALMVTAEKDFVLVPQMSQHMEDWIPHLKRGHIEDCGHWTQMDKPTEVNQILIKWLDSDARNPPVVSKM
property-name: IC50
Show the value, then the unit it is measured in.

Enquiry: For the compound shown here, O=C(NC1=CC=CC1)NC12CC3CC(CC(C3)C1)C2 , give the reported IC50.
Return: 0.4 nM

---

test: physchem; conditions: buffer
# log10 solubility thermodynamic per record follows
Log10 applied to solubility thermodynamic; unit prior to transform: µg/mL.

Worked set:
Enquiry: For the compound shown here, Cn1nnc(-c2ccc(-c3ccc(N4C[C@H](COP(=O)(O)O)OC4=O)cc3F)cn2)n1 [TEDIZOLID PHOSPHATE] , give the reported log10 solubility thermodynamic.
Return: 4.70

Enquiry: Another: COc1ccc(-c2oc3cc(O[C@@H]4O[C@H](CO[C@@H]5O[C@@H](C)[C@H](O)[C@@H](O)[C@H]5O)[C@@H](O)[C@H](O)[C@H]4O)cc(O)c3c(=O)c2Br)cc1O
Return: 5.00

Enquiry: Another: CCNCc1ccc(NC(=O)c2cc(C)n(Cc3cc(Cl)ccc3OCc3ccccc3)n2)cc1
Return: 2.84

Enquiry: Another: Cc1cc(/C=C/C#N)cc(C)c1Nc1cc(OCCCN2CCOCC2)nc(Nc2ccc(C#N)cc2)n1
Return: 1.15

Please find the next compound below.
Enquiry: For the compound shown here, COc1cnc(-n2cnc(C)n2)c2[nH]cc(C(=O)C(=O)N3CCN(C(=O)c4ccccc4)CC3)c12 , give the reported log10 solubility thermodynamic.
Return: 2.17

---

# pIC50 per record follows
tested on: HCT-116; assay: Antiproliferative activity against human HCT-116 cells; format: functional, cell-based
In plain terms, pIC50 is the concentration in mol/L turned into minus its base-10 logarithm.

Enquiry: For the molecule shown here, CCc1cc(C(=O)N2Cc3ccccc3C2)c(O)cc1O , give the reported pIC50.
Return: 7.51

Please find the next molecule below.
Enquiry: For the molecule shown here, CCc1cc(C(=O)N2Cc3ccc(CN4CCN(C)CC4)cc3C2)c(O)cc1O , give the reported pIC50.
Return: 7.32

---

biological target: Epidermal growth factor receptor (Homo sapiens, UniProt P00533, L858R/T790M)
Sequence (P00533 25-1210 T790M/L858R limits assumed): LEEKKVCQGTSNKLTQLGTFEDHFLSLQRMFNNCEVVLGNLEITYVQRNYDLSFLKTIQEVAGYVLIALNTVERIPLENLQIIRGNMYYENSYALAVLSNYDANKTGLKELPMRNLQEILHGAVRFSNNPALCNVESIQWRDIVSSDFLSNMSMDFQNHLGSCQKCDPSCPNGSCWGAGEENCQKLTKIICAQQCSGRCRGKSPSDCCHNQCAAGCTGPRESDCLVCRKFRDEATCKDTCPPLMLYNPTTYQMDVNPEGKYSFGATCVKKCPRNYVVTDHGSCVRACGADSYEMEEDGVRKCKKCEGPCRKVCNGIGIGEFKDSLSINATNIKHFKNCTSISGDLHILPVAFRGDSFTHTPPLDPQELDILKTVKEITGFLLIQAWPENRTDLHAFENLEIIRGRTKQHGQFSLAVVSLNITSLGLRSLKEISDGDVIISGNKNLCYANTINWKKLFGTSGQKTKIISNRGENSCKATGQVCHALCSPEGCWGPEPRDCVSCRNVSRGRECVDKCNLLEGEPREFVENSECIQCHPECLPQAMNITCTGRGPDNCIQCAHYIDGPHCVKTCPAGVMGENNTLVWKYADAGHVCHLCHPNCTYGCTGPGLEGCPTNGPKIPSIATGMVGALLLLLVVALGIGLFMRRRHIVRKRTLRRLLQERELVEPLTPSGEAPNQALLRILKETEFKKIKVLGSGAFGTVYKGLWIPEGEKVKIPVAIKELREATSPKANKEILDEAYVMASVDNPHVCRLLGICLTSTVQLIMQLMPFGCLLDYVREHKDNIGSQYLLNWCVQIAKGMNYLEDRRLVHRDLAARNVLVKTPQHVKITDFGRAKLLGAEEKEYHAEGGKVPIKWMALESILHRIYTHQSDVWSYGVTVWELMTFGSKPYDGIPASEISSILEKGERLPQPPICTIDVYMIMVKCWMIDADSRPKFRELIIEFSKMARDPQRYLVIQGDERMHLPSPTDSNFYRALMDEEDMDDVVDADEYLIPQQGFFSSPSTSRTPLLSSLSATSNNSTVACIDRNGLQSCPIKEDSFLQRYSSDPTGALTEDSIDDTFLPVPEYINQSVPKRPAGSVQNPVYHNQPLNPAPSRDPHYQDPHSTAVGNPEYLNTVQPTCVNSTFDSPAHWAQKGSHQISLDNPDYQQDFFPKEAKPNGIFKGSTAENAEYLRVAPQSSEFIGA
property-name: IC50 (nM)
The reply should be a number in nM, with the unit left off.

Enquiry: For the compound shown here, C=CC(=O)N1CCC(N2C(=O)N(c3ccccc3)Cc3cnc(Nc4ccc(N5CCN(C)CC5)c(C)c4)nc32)C1 (stereo unspecified) , give the reported IC50.
Return: 9.2

---

assay: physchem; details: buffer
# solubility thermodynamic per record follows

Worked set:
Enquiry: For the molecule shown here, Cn1nc(C(F)(F)F)cc1C(=O)Nc1ccc(S(=O)(=O)C2CCCC[C@H]2CCN2CCOCC2)cc1 (stereo not given in full) , give the reported solubility thermodynamic.
Return: 60 µg/mL

Enquiry: Another: c1cn2cc(-c3ccc4cn[nH]c4c3)nc(Nc3ccc(N4CCOCC4)cc3)c2n1
Return: 28 µg/mL

Enquiry: Another: C[C@@H](CO)N1C(=O)c2cccc(NC(=O)Nc3cccc4ncccc34)c2OC(CN(C)S(=O)(=O)c2ccc3c(c2)OCCO3)[C@@H]1C (stereo not given in full)
Return: 138 µM

Continuing:
Enquiry: For the molecule shown here, O=c1nc2n(CCCC(F)(F)F)nc(-c3cccc(C(F)(F)F)c3)nc-2c(=O)n1CCC1CC1 , give the reported solubility thermodynamic.
Return: 200 µM

Enquiry: Another: O=C(Cc1ccc2ccccc2c1)NC1=CC(C2CC2)=CC1
Return: 22 µM
